Consider the following sequences; for each one, report its relative integration efficiency (log2).
- System: VchCAST RNA-guided transposition machinery (E. coli BL21(DE3) host, lacZ target)
- protocol: relative integration efficiency (T-RL orientation) vs wild-type transposon end (log2 (normalized fold change)); transposon end mutated: left end; higher = more efficient transposition
Numbers only.

{"columns": ["chain_sequence", "measurement"],
 "data": [
  ["AATGTTGTTGATGCAACCATAAAGTGATATTTACGCACTCCGTAGCCATCTGGGGCACCGGACGCTCCAACCATATATTGATATCTCACAAAACAACCATAAGTTGATATTTTTGTGAATCGAGTATTTCAGCAAAACTACTGCAGTAAGAA", -2.64]
]}

Then there is this sequence:
// returns reported relative integration efficiency (log2) for input AATGTTGTTGATGCAACCATAAAGTGATATTTAATAATTATTTATAATCAGCCAACCATATATTGATATCTCACAAAACAACCATAAGTTGATATTTTTGTGAATCGAGTATTTCAGCAAAACTACTGCAGTAAGAAAGTTACTTCGTGGTA
-7.71

====

- System: VchCAST RNA-guided transposition machinery (E. coli BL21(DE3) host, lacZ target)
- protocol: relative integration efficiency (T-RL orientation) vs wild-type transposon end (log2 (normalized fold change)); transposon end mutated: right end (5 bp flank + 75 bp right end); higher = more efficient transposition
Classification by relative integration efficiency (log2) follows these ranges: I = under -2, II = from -2 up to -0.6, III = -0.6 and over

// known answers, use as guide
{"columns": ["chain_sequence", "class_name"],
 "data": [
  ["ACATTTGTTGATACAACCATCAAATGATAATTCCACCCCTAAATTGATAATTATCACACCCAATTTAACTATAACGCTCTGATCATAGTCAGACCAACATTGCTACGACCCGTATTCGCACCGACAC", "I"],
  ["ACATTTGTTGATACACCCATAAATTGATATTGCCAACCATATATTGATATCTCTCACAACCATAAGTTGATATTTTCTCTGATCATAGTCAGACCAACATTGCTACGACCCGTATTCGCACCGACAC", "III"],
  ["ACATTTGTCGATACAACCATAAAATGATAATTACACCCATAAATTCATCATTATCACACCCAATTTAACTATAACGCTCTGATCATAGTCAGACCAACATTGCTACGACCCGTATTCGCACCGACAC", "I"],
  ["ACATTTGTTGATACAACCATAAAGTGATATTTACAACCATAAGTTGATATTTTTCACACCCATAAATTGATATTGCCTCTGATCATAGTCAGACCAACATTGCTACGACCCGTATTCGCACCGACAC", "III"],
  ["ACATTTGTTGATACAACCATAAAATGATAATTACACCCATAAATTGATAATGATGACACCGAATTTAACTATAACGCTCTGATCATAGTCAGACCAACATTGCTACGACCCGTATTCGCACCGACAC", "II"],
  ["ACATTTGTCGATACAACCATAAAATGATAATTACACCCATAAATGGATCATTATCACCCCCAATTTAACTATAACGCTCTGATCATAGTCAGACCAACATTGCTACGACCCGTATTCGCACCGACAC", "II"]
]}

Kindly state the category for this sequence: ACATTTGTTGATACAACCATAAAATGATAATTACACCCATAAATTGATAATTATCACACCCATAAATTGATATTGCCTCTAGCTTGATCTACATTGGATTGCCATTCTCTCACAGTAGCACCGACAC
III

Kindly state the category for this sequence: ACATTTGTTGATACCACCATAAAATGATAATTCCACCCATACATTGATAATTATCACACCCAATTTAACTATAACGCTCTGATCATAGTCAGACCAACATTGCTACGACCCGTATTCGCACCGACAC
I

Kindly state the category for this sequence: ACATTTGTTGATACAACCATAAAATGATAATTACACCCCGAAATTGATAATTATCACACCCATAAATTGATATTGCCTCTGATCATAGTCAGACCAACATTGCTACGACCCGTATTCGCACCGACAC
I

====

Consider the following sequences; for each one, report its relative integration efficiency (log2).
- Test system: VchCAST RNA-guided transposition machinery (E. coli BL21(DE3) host, lacZ target)
- protocol: relative integration efficiency (T-LR orientation) vs wild-type transposon end (log2 (normalized fold change)); transposon end mutated: right end (5 bp flank + 75 bp right end); higher = more efficient transposition
Numbers only.

Worked cases, answers included:
{"columns": ["chain_sequence", "measurement"],
 "data": [
  ["ACATTTGTTGATATAATTATCATTTTATGGTTGCAACCATAAAATGATAATTATGATAATTATCATTTTATGGTTGCTCTGATCATAGTCAGACCAACATTGCTACGACCCGTATTCGCACCGACAC", -4.33],
  ["ACATTTGTTGATACACCCATAAATTGATAATTACACCCATAAATTGATAATTATCACACCCATAAATTGATATTGCCTCTGATCATAGTCAGACCAACATTGCTACGACCCGTATTCGCACCGACAC", -0.0387],
  ["ACATTTGTTGATACAACCATAAAGTGATATTTACAACCATAAAGTGATATTTATCAGTGGGTATTTAACTATAACGCTCTGATCATAGTCAGACCAACATTGCTACGACCCGTATTCGCACCGACAC", 2.91],
  ["ACATTTGTTGATACAACCATAAAATTCGCATTACACCCATAAATTGATAATTATCACACCCATAAATTGATATTGCCTCTGATCATAGTCAGACCAACATTGCTACGACCCGTATTCGCACCGACAC", -2.45],
  ["ACATTTGTTGATACAACCATAAAAGGATAATTACCCCCATAAATTGATAATTATCCCACCCAATTTAACTATAACGCTCTGATCATAGTCAGACCAACATTGCTACGACCCGTATTCGCACCGACAC", 2.19]
]}

Would you mind giving relative integration efficiency (log2) for every sequence in the list below?
1. ACATTTGTTGATACATCCATAAAATGATAATTACAGCCATAAATTGATAATTATCACAGCCATAAATTGATATTGCCTCTGATCATAGTCAGACCAACATTGCTACGACCCGTATTCGCACCGACAC
2. ACATTTGTTGATACAACCATAAAATGATAATTACCCCCATAAATTGATAATAATGACACCGAATTTAACTATAACGCTCTGATCATAGTCAGACCAACATTGCTACGACCCGTATTCGCACCGACAC
3. ACATTTGTTTCTACAACCATAAAATGATAATTACACCCATAAATTGATAATTATCACACCCATAAATTGATATTGCCTCTGATCATAGTCAGACCAACATTGCTACGACCCGTATTCGCACCGACAC
4. ACATTTGTTGATACACCCATAAATTGATATTGCCACCCATAAATTGATAATTATCACAACCATATATTGATATCTCCTCTGATCATAGTCAGACCAACATTGCTACGACCCGTATTCGCACCGACAC
5. ACATTTGTTGATACAACCATAAAATGATAATTACACCCATACCGGTCGCCGGCGACACAAACGCCCGGTCGCGGTAAGAGGATCATAGTCAGACCAACATTGCTACGACCCGTATTCGCACCGACAC
6. ACATTTGTTGATAACCACATAAAATGATAATTACACCCATAAATTGATAATTATCACACCCATAAATTGATATTGCCTCTGATCATAGTCAGACCAACATTGCTACGACCCGTATTCGCACCGACAC

1: -0.607; 2: 1.94; 3: -3.43; 4: -0.478; 5: 0.296; 6: -1.28

====

- System: VchCAST RNA-guided transposition machinery (E. coli BL21(DE3) host, lacZ target)
- protocol: relative integration efficiency (T-LR orientation) vs wild-type transposon end (log2 (normalized fold change)); transposon end mutated: right end (5 bp flank + 75 bp right end); higher = more efficient transposition
assay_endpoint: relative integration efficiency (log2)
Give bare numbers.

Would you mind giving relative integration efficiency (log2) for every sequence in the list below?
1. ACATTTGTTGATACAACCATAAAATGATAATTACACCCATAAATTGATAATTATCACACCCATAAATTGATATTGCCTCTGATAACTTGGTATAGCATACATTATACGAACGGTATCGCACCGACAC
2. ACATTTGTCGATACAACCATAAAATGATAATTCACCCATCAATTGATAATTATCACACCCCAATTTAACTATAACGCTCTGATCATAGTCAGACCAACATTGCTACGACCCGTATTCGCACCGACAC
3. ACATTTGTTGATACAACCATAAAATGATAATTAACACCCATAAATTGATAATTATCAACAAACGCCCGGTCGCGGTACTCTGATCATAGTCAGACCAACATTGCTACGACCCGTATTCGCACCGACA

1. 0.663
2. 0.029
3. 1.67
